# ASSAY NAME: chemical genetic growth profiling, strain panel (AID 1159580);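 further: tested at 20 µM; growth read once vehicle control cultures reached saturation at 30 °C; 1 = growth at the plate median or of vehicle wells; lower values mean less growth of the strain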
# CONDITION: S. cerevisiae deletion strains, growth OD, locus YLR258W, strain gsy2, stronger effect = lower value
Hit rate of the full screen: of about 5,500 compounds, about 2,000 (36%) were called active. Inconclusive results (about 18%) are left out. The list shows a part of the results.
QUANTITY MEASURED: normalized growth
Enter a number only.

Sample COP(=S)(OC)Oc1ccc(SC)c(C)c1 ; normalized growth observed: 0.979

Sample O=C(O)CCCCC1SCC2NC(=O)NC21 (configuration not stated) ; normalized growth observed: 0.995

Sample COc1cc(C)c2c(c1C=O)Oc1c(c(C)c(O)c3c1C(O)OC3=O)OC2=O (configuration not stated) ; normalized growth observed: 1.03

Sample O=C1OCCN1/N=C\c1ccc([N+](=O)[O-])o1 ; normalized growth observed: 0.976

Sample NC(=O)c1cc[n+](CC2=C(C(=O)O)N3C(=O)C(NC(=O)C(c4ccccc4)S(=O)(=O)[O-])C3SC2)cc1 (configuration not stated) ; normalized growth observed: 1.01

Sample O=C1CN(/N=C\c2ccc([N+](=O)[O-])o2)C(=O)N1 ; normalized growth observed: 0.975

Sample NC(=O)N/N=C\c1ccc([N+](=O)[O-])o1 ; normalized growth observed: 0.998

Sample CCCN(CCC)C(=O)C(CCC(=O)O)NC(=O)c1ccccc1 (configuration not stated) ; normalized growth observed: 0.973

Sample CCOC(=O)CCCCCCCCCCCCC1C=CCC1 (configuration not stated) ; normalized growth observed: 0.946

Sample O=C(O)CCC(=O)c1ccc(-c2ccccc2)cc1 ; normalized growth observed: 1

Sample O=C1N=C(O)CN1/N=C\c1ccc(-c2ccc([N+](=O)[O-])cc2)o1 ; normalized growth observed: 0.994

Sample Cc1ccc(C(C)C)cc2c(C)ccc1-2 ; normalized growth observed: 0.999

====

# ASSAY NAME: chemical genetic growth profiling, strain panel (AID 1159580);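 further: tested at 20 µM; growth read once vehicle control cultures reached saturation at 30 °C; 1 = growth at the plate median or of vehicle wells; lower values mean less growth of the strain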
# CONDITION: S. cerevisiae deletion strains, growth OD, locus YDL074C, strain BRE1, stronger effect = lower value
The whole screen tested about 5,500 compounds, of which about 2,000 (36%) were called active. Roughly 18% stayed inconclusive and do not appear here. Some of the results follow.
QUANTITY MEASURED: normalized growth
Enter a number only.

Sample CC12CCC3C(CC=C4CC(O)CCC43C)C1CCC2=O (centres undefined) ; normalized growth observed: 0.778

Sample CC(C)C1=CC2=CCC3[C@](C)(CCC[C@]3(C)C(=O)O)C2CC1 (some centres undefined) ; normalized growth observed: 0.923

Sample Nc1nc2c(c(=O)[nH]1)N(C=O)C(CNc1ccc(C(=O)N[C@@H](CCC(=O)O)C(=O)O)cc1)CN2 (some centres undefined) ; normalized growth observed: 0.999

Sample CCC(CCC(C)C1CCC2C3CC=C4C[C@@H](OC(C)=O)CC[C@]4(C)C3CC[C@]12C)C(C)C (some centres undefined) ; normalized growth observed: 1.07

Sample CC(=O)O[C@H]1CC[C@@]2(C)C(=CCC3C2CC[C@@]2(C)C3CC[C@@H]2C(C)CCCC(C)C)C1 (some centres undefined) ; normalized growth observed: 1.04

Sample C[C@@]12C(=O)OC(=O)[C@]1(C)C1CCC2O1 ; normalized growth observed: 0.662

Sample NCc1ccc(S(N)(=O)=O)cc1 ; normalized growth observed: 1.01

Sample O=c1ccn([C@@H]2O[C@H](COP(=O)(O)OP(=O)(O)OP(=O)(O)O)[C@@H](O)[C@H]2O)c(=O)[nH]1 ; normalized growth observed: 1.04

Sample CC(=O)O[C@H]1CC[C@@]2(C)C(=CCC3C2CC[C@]2(C)C(=O)CCC32)C1 (some centres undefined) ; normalized growth observed: 0.612
